Data provenance: FireProtDB (doi:10.1016/0022-2836(92)90387-y)

B1: Ribonuclease, P00648 (parent)
chain: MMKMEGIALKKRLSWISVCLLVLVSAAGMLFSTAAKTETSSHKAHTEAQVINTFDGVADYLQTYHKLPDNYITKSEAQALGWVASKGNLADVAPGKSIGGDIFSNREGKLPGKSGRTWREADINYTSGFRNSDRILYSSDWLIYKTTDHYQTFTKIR

variants of: B1; conditions: Bacillus amyloliquefaciens; pH 6.3; 25 °C; Urea; Fluorescence; MES 50 mM; reversible: yes; structure 1BNI; whole UniProt chain shown
assay.metric: unfolding free energy (kcal/mol)
Report the value in kcal/mol with no unit label.

// below: answered variants
H149A 8.59
D101N 8.16

Qu. // returns reported unfolding free energy for input S104A
Ans. 8.98
